B1: library; numbered along this chain (parent)
chain: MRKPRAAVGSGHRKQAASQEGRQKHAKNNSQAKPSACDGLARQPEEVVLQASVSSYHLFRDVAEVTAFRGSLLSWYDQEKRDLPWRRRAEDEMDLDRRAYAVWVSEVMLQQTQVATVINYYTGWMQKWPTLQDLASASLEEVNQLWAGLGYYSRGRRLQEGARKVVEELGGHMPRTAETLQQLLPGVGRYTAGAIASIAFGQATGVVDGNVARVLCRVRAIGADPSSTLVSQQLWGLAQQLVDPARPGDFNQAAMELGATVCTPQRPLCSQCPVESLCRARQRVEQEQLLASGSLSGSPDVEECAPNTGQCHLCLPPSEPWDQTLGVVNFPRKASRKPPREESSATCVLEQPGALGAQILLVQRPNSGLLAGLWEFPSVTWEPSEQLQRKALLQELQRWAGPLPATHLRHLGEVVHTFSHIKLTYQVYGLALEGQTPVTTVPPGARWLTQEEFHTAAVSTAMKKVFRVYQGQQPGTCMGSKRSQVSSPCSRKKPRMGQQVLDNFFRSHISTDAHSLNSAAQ

# Variants of: B1
# run description: 8OG:A repair function score (normalized; synonymous = 0, nonsense = -1) (normalized log-likelihood score); higher = more repair activity (WT-like);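 also: cells sorted at 72 h after reporter transfection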
# measurement parameters: with 8OG:A DNA repair reporter (GFP) in HEK-293 MUTYH KO cells
experimental readout: 8OG:A repair function score

Value lookup for 8OG:A repair function score; key = "I118R"
0.0138

# repeat for "A6I"
-0.177

# repeat for "E285N"
-0.0168

Subsequent entry: "A520R"
0.027

Follow-up entry: "T511E"
-0.0321
